# Tested on: MIA-PaCa-2
# Procedure details: Phototoxicity (PDT), MTT assay, MIA-PaCa-2
# Assay type: cell-based
# Protocol conditions: 50 μM photosensitizer, 3 h, 50 mW 0.09 J/cm^2 laser 100 sec, 72 h incubation
Measurement kind: Cell viability, Phototoxicity against MIA-PaCa-2 (%)
Report the figure in % without appending any unit label.

Examples with answers:
| Compound | Recorded measurement |
| --- | --- |
| C=Cc1c(C)c2cc3nc(c(CC(=O)OC)c4[nH]c(cc5nc(cc1[nH]2)C(C)=C5CC)c(C)c4C(=O)NCCCOCCOCCOCCCNC(=O)CCCC(=O)Oc1ccc(/C=C/C(=O)CC(=O)/C=C/c2ccc(O)c(OC)c2)cc1OC)[C@@H](CCC(=O)OC)[C@@H]3C [Compound 16, Chlorine e6-curcumin Conjugate (16)] | 9.67 |
| C=Cc1c(C)c2cc3nc(c(CC(=O)OC)c4[nH]c(cc5nc(cc1[nH]2)C(C)=C5CC)c(C)c4C(=O)NCCCCCCNC(=O)CCCC(=O)Oc1ccc(/C=C/C(=O)CC(=O)/C=C/c2ccc(O)c(OC)c2)cc1OC)C(CCC(=O)OC)C3C (stereo not shown) [Compound 10, Chlorine e6-curcumin Conjugate (10)] | 48.21 |
| C=Cc1c(C)c2cc3nc(c(CC(=O)OC)c4[nH]c(cc5nc(cc1[nH]2)C(C)=C5CC)c(C)c4C(=O)NCCCNC(=O)CCCC(=O)Oc1ccc(/C=C/C(=O)CC(=O)/C=C/c2ccc(O)c(OC)c2)cc1OC)C(CCC(=O)OC)C3C (stereo not shown) [Compound 7, Chlorine e6-curcumin Conjugate (7)] | 4.99 |

Prompt: Cell viability, Phototoxicity against MIA-PaCa-2 for C=Cc1c(C)c2cc3nc(c(CC(=O)OC)c4[nH]c(cc5nc(cc1[nH]2)C(C)=C5CC)c(C)c4C(=O)NCCOCCOCCNC(=O)CCCC(=O)Oc1ccc(/C=C/C(=O)CC(=O)/C=C/c2ccc(O)c(OC)c2)cc1OC)C(CCC(=O)OC)C3C (stereo not shown) [Compound 13, Chlorine e6-curcumin Conjugate (13)] ?
Completion: 5.90

---

# Tested on: MIA-PaCa-2
# Procedure details: Phototoxicity (PDT), MTT assay, MIA-PaCa-2
# Type: cell-based
# Protocol conditions: 25 μM photosensitizer, 3 h, 50 mW 0.09 J/cm^2 laser 100 sec, 72 h incubation
Listed molecules paired with reported Cell viability, Phototoxicity against MIA-PaCa-2
Report the figure in % without appending any unit label.

| Molecule | Quantity unit | Recorded measurement |
| --- | --- | --- |
| C=Cc1c(C)c2cc3nc(c(CC(=O)OC)c4[nH]c(cc5nc(cc1[nH]2)C(C)=C5CC)c(C)c4C(=O)NCCCOCCOCCOCCCNC(=O)CCCC(=O)Oc1ccc(/C=C/C(=O)CC(=O)/C=C/c2ccc(O)c(OC)c2)cc1OC)[C@@H](CCC(=O)OC)[C@@H]3C [Compound 16, Chlorine e6-curcumin Conjugate (16)] | % | 8.03 |
| C=Cc1c(C)c2cc3nc(c(CC(=O)OC)c4[nH]c(cc5nc(cc1[nH]2)C(C)=C5CC)c(C)c4C(=O)NCCOCCOCCNC(=O)CCCC(=O)Oc1ccc(/C=C/C(=O)CC(=O)/C=C/c2ccc(O)c(OC)c2)cc1OC)C(CCC(=O)OC)C3C (stereo not shown) [Compound 13, Chlorine e6-curcumin Conjugate (13)] | % | 5.39 |
| C=Cc1c(C)c2cc3nc(c(CC(=O)OC)c4[nH]c(cc5nc(cc1[nH]2)C(C)=C5CC)c(C)c4C(=O)NCCCCCCNC(=O)CCCC(=O)Oc1ccc(/C=C/C(=O)CC(=O)/C=C/c2ccc(O)c(OC)c2)cc1OC)C(CCC(=O)OC)C3C (stereo not shown) [Compound 10, Chlorine e6-curcumin Conjugate (10)] | % | 64.88 |

Please turn your attention to the following entry.
Prompt: Cell viability, Phototoxicity against MIA-PaCa-2 for C=Cc1c(C)c2cc3nc(c(CC(=O)OC)c4[nH]c(cc5nc(cc1[nH]2)C(C)=C5CC)c(C)c4C(=O)NCCCNC(=O)CCCC(=O)Oc1ccc(/C=C/C(=O)CC(=O)/C=C/c2ccc(O)c(OC)c2)cc1OC)C(CCC(=O)OC)C3C (stereo not shown) [Compound 7, Chlorine e6-curcumin Conjugate (7)] ?
Completion: 5.18
